A collection of compounds and their measured level, % of control at 1 µM
tested on: BV-2; assay: Antiinflammatory activity in LPS induced mouse BV-2 cells assessed as NO production at 1 uM by Griess reagent based assay relative to control
Write the answer as a number in %, unit excluded.

Reference set (4 entries):
{"RECORD SMILES": "COc1c2n(cc(C(=O)Nc3cccc(-c4cn(-c5cc(C(F)(F)F)ccc5C(F)(F)F)nn4)c3)c1=O)C[C@H]1OC[C@H](C)N1C2=O", "level, % of control at 1 µM, %": 118}
{"RECORD SMILES": "COc1c2n(cc(C(=O)Nc3cccc(-c4cn(-c5ccc(C(F)(F)F)cc5)nn4)c3)c1=O)C[C@@H]1OCC[C@@H](C)N1C2=O", "level, % of control at 1 µM, %": 83.7}
{"RECORD SMILES": "CCc1ccccc1-n1cc(-c2cccc(NC(=O)c3cn4c(c(OC)c3=O)C(=O)N3[C@H](C)CCO[C@H]3C4)c2)nn1", "level, % of control at 1 µM, %": 94.5}
{"RECORD SMILES": "COc1c2n(cc(C(=O)Nc3cccc(-c4cn(-c5ccccc5F)nn4)c3)c1=O)C[C@@H]1OCC[C@@H](C)N1C2=O", "level, % of control at 1 µM, %": 91.7}

Please find the next compound below.
Answer with the recorded level, % of control at 1 µM of CCc1ccccc1-n1cc(-c2ccc(NC(=O)c3cn4c(c(OC)c3=O)C(=O)N3[C@H](C)CCO[C@H]3C4)cc2)nn1 only.
118
